# maps each entry to its abundance fitness
B1: DnaJ homolog subfamily C member 2, residues 451 to 503; numbered along this chain, Q99543 (parent)
chain: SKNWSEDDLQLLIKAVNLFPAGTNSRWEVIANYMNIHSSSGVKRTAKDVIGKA

# Variants of: B1
# protocol_notes: abundance fitness (aPCA) (normalised: wild type 0, dead -1); higher = more abundant; growth selection in yeast, the domain comes from the species named
# settings: Homo sapiens
Give your answer as a number; write no unit.

Answered examples (4):
INSERT INTO results (residue_string, experimental_readout, numeric_readout) VALUES
  ('SKNWSEDDLQLLIKAVNLFPAGTNSRWEVIANYMNIHSSSGVKRTAKDVIGKD', 'abundance fitness', -0.08),
  ('SKNWSEDDLQLLIKAVNLFPAGTNSRWEVIAYYMNIHSSSGVKRTAKDVIGKA', 'abundance fitness', -0.507),
  ('SKNWSEDDLQLLIKAVNLFGAGTNSRWEVIANYMNIHSSSGVKRTAKDVIGKA', 'abundance fitness', -0.103),
  ('SKNWSEDDLQLSIKAVNLFPAGTNSRWEVIANYMNIHSSSGVKRTAKDVIGKA', 'abundance fitness', -0.802);

Suppose we examine the variant "SKNWSEDDLQLLIKAVNLFPAGTNSRWEVIANYMNIHSSSGVKRTAKDVIGDA" ; what abundance fitness value has been reported?
-0.666

Here is the next variant: "SKNWSEDDLQLLIKADNLFPAGTNSRWEVIANYMNIHSSSGVKRTAKDVIGKA"
-0.371

Here is the next variant: "SKNWSEDDLQLLIKAVNLFPAGTNSRWEVIANYMNIHSESGVKRTAKDVIGKA"
0.076

Here is the next variant: "SKNWSEDDLCLLIKAVNLFPAGTNSRWEVIANYMNIHSSSGVKRTAKDVIGKA"
-0.577

Here is the next variant: "SKNWSEDDLQLLIKAVNLFPAGTNSRWEVIANYMNIHSSSGVKRTAKDVIGCA"
-0.033

Here is the next variant: "SKNWSEDDLQLLIKAVNLFPAGTNSRWGVIANYMNIHSSSGVKRTAKDVIGKA"
-0.397

Here is the next variant: "SKNWSEDDLQLLIKAVNLFPAGTNSRMEVIANYMNIHSSSGVKRTAKDVIGKA"
-0.323

Here is the next variant: "SKNWSEDDLQLLIKAVNLFPAGTNSRWEVIANYMNIHSSSGVKRTAKDVRGKA"
0.096

Here is the next variant: "SKNWSCDDLQLLIKAVNLFPAGTNSRWEVIANYMNIHSSSGVKRTAKDVIGKA"
0.051

Here is the next variant: "SKNWSEQDLQLLIKAVNLFPAGTNSRWEVIANYMNIHSSSGVKRTAKDVIGKA"
0.063
